Entries and their kon values follow.
- Tested Target: T1, hRET.mFc (human)
- T1 construct: also called dimeric human RET
- Assay Details: SPR Biacore T200, mAb capture, 37 C
Give just the number in M⁻¹ s⁻¹; leave the unit off.

1) H4H8056P (antibody, human IgG4, V domains shown, human IgG4 Fc (H4H prefix)) VH: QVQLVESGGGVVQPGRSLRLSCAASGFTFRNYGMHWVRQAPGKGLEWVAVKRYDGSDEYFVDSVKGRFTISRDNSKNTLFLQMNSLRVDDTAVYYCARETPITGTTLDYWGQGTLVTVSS VL: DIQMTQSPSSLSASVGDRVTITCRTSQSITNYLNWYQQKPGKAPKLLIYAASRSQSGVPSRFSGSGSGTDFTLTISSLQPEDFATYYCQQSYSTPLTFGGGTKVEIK = 227000

Give reported kon value for H4H8085P (antibody, human IgG4, V domains shown, human IgG4 Fc (H4H prefix)) VH: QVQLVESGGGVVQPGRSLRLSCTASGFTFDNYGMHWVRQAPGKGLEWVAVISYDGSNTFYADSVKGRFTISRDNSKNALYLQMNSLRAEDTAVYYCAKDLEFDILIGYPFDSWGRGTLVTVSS VL: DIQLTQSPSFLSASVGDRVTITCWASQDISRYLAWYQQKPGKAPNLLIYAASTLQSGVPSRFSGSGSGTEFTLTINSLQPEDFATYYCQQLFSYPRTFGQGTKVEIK
99000

Give reported kon value for H4H8046P (antibody, human IgG4, V domains shown, human IgG4 Fc (H4H prefix)) VH: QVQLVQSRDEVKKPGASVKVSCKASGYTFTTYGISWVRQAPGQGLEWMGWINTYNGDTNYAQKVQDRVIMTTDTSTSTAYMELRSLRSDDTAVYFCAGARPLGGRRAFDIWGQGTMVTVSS VL: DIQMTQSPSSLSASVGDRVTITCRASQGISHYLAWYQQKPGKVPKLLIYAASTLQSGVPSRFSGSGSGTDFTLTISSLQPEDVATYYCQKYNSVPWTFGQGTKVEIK
338000
